target: T1, human CD3ε on T cells (Jurkat T cell line; CD4+ and CD8+ T cells from healthy human donors) (human, UniProt P07766 23-207); assay: FACS on CD4+ T cells from PBMCs of healthy donors, antibody at 0.1 µg/ml
T1 construct: whole, on cells
T1 sequence (P07766 23-207): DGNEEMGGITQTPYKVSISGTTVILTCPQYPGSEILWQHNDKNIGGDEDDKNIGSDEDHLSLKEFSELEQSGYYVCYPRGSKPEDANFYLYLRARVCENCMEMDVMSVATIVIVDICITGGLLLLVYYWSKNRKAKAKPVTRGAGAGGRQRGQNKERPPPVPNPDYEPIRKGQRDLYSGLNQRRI
Recorded measurements of MFI on CD4+ T cells, one per entry
Reply with just the number (in MFI).

IgG 1F8 (antibody, V domains shown, also called L3sp34-G1-2-R2-P1_F8) VH: EVQLVESGGGLVQPGGSLKLSCAASGFTFNTYAMNWVRQAPGKGLEWVGRIRSKYNNYATYYADSVKDRFTISRDDSKNTAYLQMNSLKTEDTAVYYCVRHGNFGNSYVSWFAYWGQGTLVTVSS VL: QTVVTQEPSLTVSPGGTVTLTCRSSTGAVTTSNYANWFQQKPGQAPRGLIGGTNKRAPGTPARFSGSLLGGKAALTLSGAQPEDEAEYYCALWYDGKWVFGGGTKLTVL : 284
IgG 1A10 (antibody, V domains shown, also called L3sp34-G1-2-R2-P1_A10) VH: EVQLVESGGGLVQPGGSLKLSCAASGFTFNTYAMNWVRQAPGKGLEWVGRIRSKYNNYATYYADSVKDRFTISRDDSKNTAYLQMNSLKTEDTAVYYCVRHGNFGNSYVSWFAYWGQGTLVTVSS VL: QTVVTQEPSLTVSPGGTVTLTCRSSTGAVTTSNYANWFQQKPGQAPRGLIGGTNKRAPGTPARFSGSLLGGKAALTLSGAQPEDEAEYYCALWYKGYWVFGGGTKLTVL : 96

The reported value for IgG 1A4 (antibody, V domains shown, also called L3sp34-G1-2-R2-P1_A4) VH: EVQLVESGGGLVQPGGSLKLSCAASGFTFNTYAMNWVRQAPGKGLEWVGRIRSKYNNYATYYADSVKDRFTISRDDSKNTAYLQMNSLKTEDTAVYYCVRHGNFGNSYVSWFAYWGQGTLVTVSS VL: QTVVTQEPSLTVSPGGTVTLTCRSSTGAVTTSNYANWFQQKPGQAPRGLIGGTNKRAPGTPARFSGSLLGGKAALTLSGAQPEDEAEYYCALWYKQRWVFGGGTKLTVL in terms of MFI on CD4+ T cells is 284

Source of measurements: patent US20190284297A1
